biological target: original gpBLT1 dN15/Ser309Ala (Cavia porcellus, UniProt H0VYV8, S309A); assay: competitive ligand binding
Sequence (H0VYV8 16-348 S309A): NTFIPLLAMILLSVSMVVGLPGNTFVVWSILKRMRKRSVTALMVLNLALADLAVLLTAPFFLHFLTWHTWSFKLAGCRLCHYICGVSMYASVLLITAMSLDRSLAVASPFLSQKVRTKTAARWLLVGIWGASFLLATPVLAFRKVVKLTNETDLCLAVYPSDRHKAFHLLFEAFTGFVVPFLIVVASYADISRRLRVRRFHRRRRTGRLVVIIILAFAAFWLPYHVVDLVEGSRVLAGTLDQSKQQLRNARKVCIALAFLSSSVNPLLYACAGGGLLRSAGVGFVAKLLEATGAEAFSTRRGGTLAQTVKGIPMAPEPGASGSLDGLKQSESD
experimentalReadout: Ki (nM)
One number for each entry, in nM.

Field Ki (entry `CCCCC/C=C\C[C@@H](O)/C=C/C=C/C=C\[C@@H](O)CCCC(=O)O` ) reads 3.8

###

target: original gpBLT1 dN15/Ser309Ala (Cavia porcellus, UniProt H0VYV8, S309A); assay: saturation binding of LTB4, membrane fraction
experimentalReadout: pKd
Numbers only, as −log10 of the molar value.

Notebook: CCCCC/C=C\C[C@@H](O)/C=C/C=C/C=C\[C@@H](O)CCCC(=O)O [LTB4, leukotriene B4] , pKd read as 8.18
